Would you mind telling me the reported self-cleavage of each entry?
B1: Twister Ribozyme (parent)
chain: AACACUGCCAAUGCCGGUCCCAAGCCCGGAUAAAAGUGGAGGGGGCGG

Variants of: B1
ASSAY_OVERVIEW: self-cleavage, relative activity (ratio to wild type); higher = more cleavage; co-transcriptional

Request the reported self-cleavage associated with G16A C46G 0.813

Same question for U18G C25G please. 0.0608

Same question for C3A C21A please. 0.0913

Same question for C46U G47U please. 1.02

Same question for U18A A23G please. 0.0959

Same question for A1G G13A please. 0.383

Same question for G41C G48U please. 0.288

Same question for C21U A33U please. 0.0831

Same question for A1C A2G please. 1.25

Same question for A32C G47A please. 0.764

Same question for G7C G36A please. 0.0583

Same question for U6A A34C please. 0.859

Same question for C9G A23C please. 0.0567

Same question for C21G G38C please. 0.0966

Same question for A1U A4U please. 0.0259

Same question for A10C G38C please. 0.813

Same question for G24C G47U please. 0.0811

Same question for G13A A35U please. 0.978

Same question for U18G G38U please. 0.0721

Same question for A33U U37C please. 0.379

Same question for A1G C25G please. 0.205

Same question for C3G A22G please. 0.124

Same question for U37A G38U please. 0.38

Same question for C5U A22G please. 0.113

Same question for C5U G13A please. 0.417

Same question for A33C C46U please. 0.961

Same question for U37G G41U please. 0.145

Same question for G39A A40C please. 0.139

Same question for G17A C21U please. 0.0984

Same question for C5U G17A please. 0.237

Same question for C8G G43C please. 0.139

Same question for C14A please. 0.923

Same question for C15G A23U please. 0.06

Same question for A2C C26G please. 0.0867

Same question for A2C C21U please. 0.0368

Same question for G43C G47C please. 0.159

Same question for A35C U37C please. 0.592

Same question for C25G U31A please. 0.482

Same question for G17C C26G please. 0.446

Same question for C9U G45C please. 0.157

Same question for C8U G43A please. 0.145

Same question for G28U A33G please. 0.979

Same question for U6C G48U please. 0.607

Same question for A1C C3A please. 0.193

Same question for A4G C15A please. 0.631

Same question for C19A G42C please. 0.197

Same question for G28A G36C please. 0.131

Same question for A4G A34G please. 0.61

Same question for C14A G38U please. 0.676

Same question for C20U A30U please. 1.05

Same question for A10C G29A please. 0.86

Same question for G13U G42C please. 0.181

Same question for C19U G45C please. 0.38

Same question for C3U G48C please. 0.484

Same question for C3G A11U please. 0.762

Same question for A35U U37C please. 0.633

Same question for C9G G44U please. 0.427

Same question for A4C G13U please. 0.072

Same question for C9U C20U please. 0.264

Same question for A10C A35U please. 1.04

Same question for C20A C46A please. 0.0788

Same question for C3A U37G please. 0.17

Same question for A40U G47U please. 0.12

Same question for U12C G41A please. 0.577

Same question for A2U C21U please. 0.0725

Same question for C9A C14G please. 0.0661

Same question for A11U U12A please. 0.95

Same question for A2C C5U please. 0.0782

Same question for C5A A30G please. 0.491

Same question for G7A C46G please. 0.414

Same question for C15A C46U please. 0.623

Same question for G36C G47A please. 0.183

Same question for A32U A33C please. 0.895

Same question for G24C C46A please. 0.109

Same question for U18A G38A please. 0.229

Same question for C3G C14G please. 0.0805

Same question for G13U G48U please. 0.357

Same question for A40C C46U please. 0.236

Same question for A4G C25G please. 0.189

Same question for C5U A11G please. 0.77

Same question for G42C C46G please. 0.465

Same question for G13A G48C please. 0.91

Same question for G28C A32G please. 0.734

Same question for G24U A34G please. 0.189

Same question for C8A G39U please. 0.123

Same question for G36U G44U please. 0.355

Same question for C8A G38A please. 0.343

Same question for A22G G48U please. 0.334

Same question for U6A C14A please. 0.866

Same question for C21G G28C please. 0.0382

Same question for A34C G41A please. 0.133

Just for reference, the RNAGym collection of RNA variant scans (doi:10.7554/elife.80360) is where these values come from.
